# system-tested: Hsp90 (Homo sapiens, UniProt P07900)
# assay-details: Hsp90 binding (filter binding assay)
# setup-conditions: filter binding assay; read-out: Hsp90 Binding (Kd)
Give measured Kd for each item. Keep answers brief.
Output spec: scalar in nM, unitless text.

The compound CO[C@H]1[C@@H](OC)C[C@H](C)CC2=C(N)C(=O)C=C(NC(=O)/C(C)=C/C=C\[C@H](OC)[C@@H](OC(N)=O)/C(C)=C/[C@@H]1C)C2=O showed Kd equal to 320

The compound COC1=C2C[C@@H](C)C[C@H](OC)[C@H](OC)[C@@H](C)/C=C(\C)[C@H](OC(N)=O)[C@@H](OC)/C=C\C=C(/C)C(=O)NC(=CC1=O)C2=O showed Kd equal to 490

The compound C=CCNC1=C2C[C@@H](C)C[C@H](OC)[C@H](OC)[C@@H](C)/C=C(\C)[C@H](OC(N)=O)[C@@H](OC)/C=C\C=C(/C)C(=O)NC(=CC1=O)C2=O showed Kd equal to 2800

====

# Test system: CCRF-CEM
# assay-details: Cytotoxicity, CCRF-CEM
# setup-conditions: Homo sapiens, read-out: Compound Cytotoxicity (IC50, nM)
Give measured IC50 for each item. Keep answers brief.
Output spec: scalar in nM, unitless text.

Field IC50 (CCRF-CEM), entry CO[C@H]1[C@@H](OC)C[C@H](C)CC2=C(NCCF)C(=O)C=C(NC(=O)/C(C)=C/C=C\[C@H](OC)[C@@H](OC(N)=O)/C(C)=C/[C@@H]1C)C2=O [Compound I-c] : 960

Field IC50 (CCRF-CEM), entry CO[C@H]1[C@@H](OC)C[C@H](C)CC2=C(NCCc3c[nH]cn3)C(=O)C=C(NC(=O)/C(C)=C/C=C\[C@H](OC)[C@@H](OC(N)=O)/C(C)=C/[C@@H]1C)C2=O [Compound I-h] : 510

Field IC50 (CCRF-CEM), entry CO[C@H]1[C@@H](OC)C[C@H](C)CC2=C(N3CCC3)C(=O)C=C(NC(=O)/C(C)=C/C=C\[C@H](OC)[C@@H](OC(N)=O)/C(C)=C/[C@@H]1C)C2=O [Compound I-a] : 420

Field IC50 (CCRF-CEM), entry C=CCNC1=C2C[C@@H](C)C[C@H](OC)[C@H](OC)[C@@H](C)/C=C(\C)[C@H](OC(N)=O)[C@@H](OC)/C=C\C=C(/C)C(=O)NC(=CC1=O)C2=O [Compound I-g] : 2500

Field IC50 (CCRF-CEM), entry CO[C@H]1[C@@H](OC)C[C@H](C)CC2=C(NCCN3CCC3)C(=O)C=C(NC(=O)/C(C)=C/C=C\[C@H](OC)[C@@H](OC(N)=O)/C(C)=C/[C@@H]1C)C2=O [Compound I-i] : 85

====

# system-tested: Hsp90 (Homo sapiens)
# assay-details: Hsp90 binding (filter binding assay)
# setup-conditions: filter binding assay; read-out: Hsp90 Binding (Kd)
Give measured Kd for each item. Keep answers brief.
Output spec: scalar in µM, unitless text.

The compound CO[C@H]1[C@@H](OC)C[C@H](C)CC2=C(NCCN(C)C)C(=O)C=C(NC(=O)/C(C)=C/C=C\[C@H](OC)[C@@H](OC(N)=O)/C(C)=C/[C@@H]1C)C2=O showed Kd equal to 0.8

The compound CO[C@H]1[C@@H](OC)C[C@H](C)CC2=C(NCCN3CCC3)C(=O)C=C(NC(=O)/C(C)=C/C=C\[C@H](OC)[C@@H](OC(N)=O)/C(C)=C/[C@@H]1C)C2=O showed Kd equal to 0.96

The compound CO[C@H]1[C@@H](OC)C[C@H](C)CC2=C(NCCc3c[nH]cn3)C(=O)C=C(NC(=O)/C(C)=C/C=C\[C@H](OC)[C@@H](OC(N)=O)/C(C)=C/[C@@H]1C)C2=O showed Kd equal to 2

The compound CO[C@H]1[C@@H](OC)C[C@H](C)CC2=C(NCCN3CCCC3)C(=O)C=C(NC(=O)/C(C)=C/C=C\[C@H](OC)[C@@H](OC(N)=O)/C(C)=C/[C@@H]1C)C2=O showed Kd equal to 0.96
